- Test system: OR2T3 R298C
- Sequence (whole entry): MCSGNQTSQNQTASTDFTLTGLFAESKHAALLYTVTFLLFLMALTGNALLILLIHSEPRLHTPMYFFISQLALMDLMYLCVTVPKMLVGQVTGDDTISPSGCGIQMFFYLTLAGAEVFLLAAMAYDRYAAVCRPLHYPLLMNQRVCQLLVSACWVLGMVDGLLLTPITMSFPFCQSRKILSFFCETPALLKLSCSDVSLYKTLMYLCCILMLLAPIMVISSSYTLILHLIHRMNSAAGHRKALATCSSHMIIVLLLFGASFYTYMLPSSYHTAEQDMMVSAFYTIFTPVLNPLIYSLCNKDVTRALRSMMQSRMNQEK
- Condition details: stereoisomer not certain

{"Molecule": "Cc1cnc(C)c(C)n1", "odorant receptor agonist call": "inactive"}
{"Molecule": "CCC1OC(=O)C(O)=C1C (centres undefined)", "odorant receptor agonist call": "inactive"}
{"Molecule": "CCCCCCC=CCCC=O", "odorant receptor agonist call": "inactive"}
{"Molecule": "CCC1OC(C)=C(O)C1=O (centres undefined)", "odorant receptor agonist call": "inactive"}
